- SUBJECT OF TEST: human FABP1 (Homo sapiens, UniProt P07148)
- Sequence (P07148 whole entry): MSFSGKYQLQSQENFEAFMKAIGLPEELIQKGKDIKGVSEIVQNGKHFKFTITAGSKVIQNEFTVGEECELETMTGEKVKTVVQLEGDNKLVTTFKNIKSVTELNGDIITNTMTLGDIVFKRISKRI
PARAMETER: Kd
Answer with the value and then the unit.

Enquiry: Look up and report measured Kd (human FABP1 (Homo sapiens, UniProt P07148)) for the following compound: CN(C)c1cccc2c(S(=O)(=O)NCCCCCCCCCCC(=O)O)cccc12 [DAUDA, 11-(Dansylamino)unadecanoic acid]
Return: 1070 nM

###

Below, each of the compounds is paired with its reported AUC value.
- ASSAY NOTES: THC pharmacokinetics in wild-type and FABP1-KO mice (LC-MS/MS of brain and plasma)
- PROTOCOL CONDITIONS: mouse, plasma, ip, 10 mg/kg, AUC, FABP1-KO mice, THC 10 mg/kg i.p., 0-24 h
Reply with just the number (in ng·h/mL).

CCCCCc1cc(O)c2c(c1)OC(C)(C)[C@@H]1CCC(C)=C[C@@H]21 [THC, ∆^9-tetrahydrocannabinol]    25200

Enquiry: Report measured AUC; entry is CCCCCc1cc(O)c2c(c1)OC(C)(C)C1CCC(C(=O)O)=CC21 (stereo not drawn) [THC-COOH]
Return: 544

Enquiry: Report measured AUC; entry is CCCCCc1cc(O)c2c(c1)OC(C)(C)C1CCC(CO)=CC21 (stereo not drawn) [11-OH-THC, 11-hydroxy-Δ^9-tetrahydrocannabinol]
Return: 112

###

- ASSAY NOTES: THC pharmacokinetics in wild-type and FABP1-KO mice (LC-MS/MS of brain and plasma)
- PROTOCOL CONDITIONS: mouse, plasma, ip, 10 mg/kg, Cmax, FABP1-KO mice, THC 10 mg/kg i.p.
Below, each of the molecules is paired with its reported Cmax value.
Reply with just the number (in ng/mL).

CCCCCc1cc(O)c2c(c1)OC(C)(C)[C@@H]1CCC(C)=C[C@@H]21 [THC, ∆^9-tetrahydrocannabinol]    34800
CCCCCc1cc(O)c2c(c1)OC(C)(C)C1CCC(CO)=CC21 (stereo not drawn) [11-OH-THC, 11-hydroxy-Δ^9-tetrahydrocannabinol]    50.6

Enquiry: Report measured Cmax; entry is CCCCCc1cc(O)c2c(c1)OC(C)(C)C1CCC(C(=O)O)=CC21 (stereo not drawn)
Return: 78.7

###

- SUBJECT OF TEST: human FABP1 (Homo sapiens)
- Construct: His tag (N); host or cells: BL21(DE3) Escherichia coli
- ASSAY NOTES: DAUDA fluorescence displacement binding assay
- PROTOCOL CONDITIONS: FABP1 3 μM, DAUDA 500 nM, 25 °C, 20 min, pH 7.6; read-out: Ki (DAUDA displacement from FABP1)
PARAMETER: Ki (µM)
Reply with just the number (in µM).

Enquiry: Report measured Ki; entry is C=C(C)[C@@H]1CCC(C)=C[C@H]1c1c(O)cc(CCCCC)cc1O
Return: 3.95

###

Below, each of the compounds is paired with its reported pKi value.
- SUBJECT OF TEST: human FABP1 (Homo sapiens)
- Construct: His tag (N); host or cells: BL21(DE3) Escherichia coli
- ASSAY NOTES: DAUDA fluorescence displacement binding assay
# reply with the number alone; pKi is -log10 of concentration in mol/L

The following compounds have reported results that may help.
CCCCCc1cc(O)c2c(c1)OC(C)(C)C1CCC(C(=O)O)=CC21 (stereo not shown) [THC-COOH]    4.95
CCCCCc1cc(O)c2c(c1)OC(C)(C)[C@@H]1CCC(C)=C[C@@H]21 [THC, ∆^9-tetrahydrocannabinol]    5.53
CCCCCCC(C)(C)c1cc(O)c2c(c1)OC(C)(C)[C@@H]1CC=C(C(=O)O)C[C@@H]21 [AJA, ajulemic acid]    4.59

# next compound below
Enquiry: Report measured pKi; entry is CCCCCc1cc(O)c2c(c1)OC(C)(C)C1CCC(CO)=CC21 (stereo not shown) [11-OH-THC, 11-hydroxy-Δ^9-tetrahydrocannabinol]
Return: 5.15
